Hey, just so you know, these numbers are from patent US20180057604A1.

For each entry below, report its Kd value.
# assay_target: T1, human TfR extracellular domain with N-terminal His tag (human, UniProt P02786 89-760)
# T1 construct: Biotinylated in some assays; also called huTfR; HuTfR
# T1 sequence (P02786 89-760 G142S): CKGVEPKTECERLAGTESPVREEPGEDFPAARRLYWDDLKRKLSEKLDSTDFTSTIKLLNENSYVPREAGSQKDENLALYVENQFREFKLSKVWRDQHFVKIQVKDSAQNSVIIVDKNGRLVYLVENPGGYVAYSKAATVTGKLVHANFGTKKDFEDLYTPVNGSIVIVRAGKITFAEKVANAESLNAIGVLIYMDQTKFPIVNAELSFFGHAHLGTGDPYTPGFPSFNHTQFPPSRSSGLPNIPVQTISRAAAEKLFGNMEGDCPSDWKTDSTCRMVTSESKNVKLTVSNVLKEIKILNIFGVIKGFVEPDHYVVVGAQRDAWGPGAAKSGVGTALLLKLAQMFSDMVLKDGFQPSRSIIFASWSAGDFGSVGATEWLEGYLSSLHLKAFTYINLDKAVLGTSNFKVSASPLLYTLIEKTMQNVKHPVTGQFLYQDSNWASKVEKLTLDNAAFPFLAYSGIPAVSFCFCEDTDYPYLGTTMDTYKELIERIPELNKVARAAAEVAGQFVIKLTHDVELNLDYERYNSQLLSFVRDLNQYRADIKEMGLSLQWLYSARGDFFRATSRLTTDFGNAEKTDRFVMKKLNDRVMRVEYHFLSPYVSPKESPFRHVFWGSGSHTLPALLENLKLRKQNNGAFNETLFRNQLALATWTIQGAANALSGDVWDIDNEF
# measurement_protocol: SPR, IgG;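 note: His-tagged TfR captured via immobilized anti-His antibody on a CM5 chip, antibody injected in 3-fold dilution series by single cycle kinetics, 1:1 Langmuir or steady-state fit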
Answers are plain numbers, in nM.

The cases that follow already have their Kd on record.
hu15G11.v1 (antibody, V domains shown, IgG; HC 48 M, 67 V, 69 I, 71 R, 73 T) VH: EVQLVQSGAEVKKPGASVKVSCKASGYTFTSYWMHWVRQAPGQRLEWMGEINPTNGRTNYIEKFKSRVTITRDTSASTAYMELSSLRSEDTAVYYCARGTRAYHYWGQGTMVTVSS VL: DIQMTQSPSSLSASVGDRVTITCRASDNLYSNLAWYQQKPGKAPKLLLYDATNLADGVPSRFSGSGSGTDYTLTISSLQPEDFATYYCQHFWGTPLTFGQGTKVEIK; 5.12
7A4 HC/8A2 LC (antibody, V domains shown, chimeric IgG; also called ch7A4/8A2) VH: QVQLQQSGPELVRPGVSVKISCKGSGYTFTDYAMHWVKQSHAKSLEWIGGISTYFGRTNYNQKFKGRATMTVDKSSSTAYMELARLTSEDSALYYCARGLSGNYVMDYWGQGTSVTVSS VL: DIVLTQSPASLAVSLGQRATISCRASESVDSYGNSFMHWYQQKPGQPPKLLIYRASNLESGIPARFSGSGSRTDFTLTINPVEADDVATYYCQQSNEGPPTFGGGTKLEIK; 0.112

Short answer for hu7A4.v4 (antibody, V domains shown, IgG) VH: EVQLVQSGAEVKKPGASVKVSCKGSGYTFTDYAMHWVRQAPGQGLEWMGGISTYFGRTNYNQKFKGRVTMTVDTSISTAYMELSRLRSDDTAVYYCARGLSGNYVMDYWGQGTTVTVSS VL: DIVMTQSPDSLAVSLGERATINCRASESVDSYGNSFMHWYQQKPGQPPKLLIYRASNLESGVPDRFSGSGSGTDFTLTISSLQAEDVAVYYCQQSNEGPPTFGQGTKLEIK : Kd was 0.612
